measurementSetup: 317.66 K; 101.33 kPa; Liquid; Pulse-echo method
assayMetric: speed of sound (m/s)

Request: For the compound CCC(=O)[O-].C[NH2+]CCO [2-hydroxy-N-methylethanaminium propionate] , what speed of sound is on record?
Response: 1632.4

Request: For the compound CCCCC(=O)[O-].C[NH2+]CCO [2-hydroxy-N-methylethanaminium pentanoate] , what speed of sound is on record?
Response: 1488.4

Request: For the compound CCCC(=O)[O-].C[NH2+]CCO [N-methyl-2-hydroxyethylammonium butanoate] , what speed of sound is on record?
Response: 1553.4

Request: For the compound C[NH2+]CCO.O=C[O-] [2-hydroxy-N-methylethanaminium formate] , what speed of sound is on record?
Response: 1777.3

Request: For the compound CC(C)C(=O)[O-].C[NH2+]CCO [2-hydroxy-N-methylethanaminium isobutyrate] , what speed of sound is on record?
Response: 1556.2

====

measurementSetup: 324.9 K; 101.33 kPa; Liquid; Pulse-echo method
assayMetric: speed of sound (m/s)

Request: For the compound C[NH2+]CCO.O=C[O-] [2-hydroxy-N-methylethanaminium formate] , what speed of sound is on record?
Response: 1763.3

Request: For the compound CCCC(=O)[O-].C[NH2+]CCO [N-methyl-2-hydroxyethylammonium butanoate] , what speed of sound is on record?
Response: 1530.8

Request: For the compound CCCCC(=O)[O-].C[NH2+]CCO [2-hydroxy-N-methylethanaminium pentanoate] , what speed of sound is on record?
Response: 1466.2

Request: For the compound CCC(=O)[O-].C[NH2+]CCO [2-hydroxy-N-methylethanaminium propionate] , what speed of sound is on record?
Response: 1610.7

Request: For the compound CC(C)C(=O)[O-].C[NH2+]CCO [2-hydroxy-N-methylethanaminium isobutyrate] , what speed of sound is on record?
Response: 1535.6

====

measurementSetup: 287.9 K; 101.33 kPa; Liquid; Pulse-echo method
assayMetric: speed of sound (m/s)

Request: For the compound CCCC(=O)[O-].C[NH2+]CCO [N-methyl-2-hydroxyethylammonium butanoate] , what speed of sound is on record?
Response: 1648.1

Request: For the compound CCCCC(=O)[O-].C[NH2+]CCO [2-hydroxy-N-methylethanaminium pentanoate] , what speed of sound is on record?
Response: 1582

Request: For the compound CCC(=O)[O-].C[NH2+]CCO [2-hydroxy-N-methylethanaminium propionate] , what speed of sound is on record?
Response: 1720.8

Request: For the compound CC(C)C(=O)[O-].C[NH2+]CCO [2-hydroxy-N-methylethanaminium isobutyrate] , what speed of sound is on record?
Response: 1640.7

Request: For the compound C[NH2+]CCO.O=C[O-] [2-hydroxy-N-methylethanaminium formate] , what speed of sound is on record?
Response: 1835.4

====

measurementSetup: 313.16 K; 101.33 kPa; Liquid; Pulse-echo method
assayMetric: speed of sound (m/s)

Request: For the compound CCCC(=O)[O-].C[NH2+]CCO [N-methyl-2-hydroxyethylammonium butanoate] , what speed of sound is on record?
Response: 1567.5

Request: For the compound CCCCC(=O)[O-].C[NH2+]CCO [2-hydroxy-N-methylethanaminium pentanoate] , what speed of sound is on record?
Response: 1502.2

Request: For the compound CC(C)C(=O)[O-].C[NH2+]CCO [2-hydroxy-N-methylethanaminium isobutyrate] , what speed of sound is on record?
Response: 1569

Request: For the compound C[NH2+]CCO.O=C[O-] [2-hydroxy-N-methylethanaminium formate] , what speed of sound is on record?
Response: 1786.1

Request: For the compound CCC(=O)[O-].C[NH2+]CCO [2-hydroxy-N-methylethanaminium propionate] , what speed of sound is on record?
Response: 1645.7
